Test: blockers of RIG-like receptor reporter activation – cell-based, Sendai virus stimulus, luciferase, 10K MLSCN set, TLR/RLR signaling modifier project, primary screen (AID 602276);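 also: firefly luciferase from ISG56 promoter only with Renilla not read in this screen; 0% = Sendai virus plus DMSO and 100% = medium plus DMSO without virus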
Conditions: HEK293 RL24 IRF3 luciferase reporter, at 10 µM, hits give high values
# inhibition annotations
Provide the reading as a plain figure in %.

Solved entries (count: 5):
{"molecule": "S=c1[nH]nc(Cc2ccccc2)n1Cc1ccco1", "inhibition [%]": 5.02}
{"molecule": "Cc1csc(SCCn2c(N3CCCC3)nc3c2c(=O)[nH]c(=O)n3C)n1", "inhibition [%]": 1.74}
{"molecule": "O=C(NC1CCCc2ccccc21)C1CCN(c2nnc(-n3cccc3)s2)CC1 (stereo unspecified)", "inhibition [%]": 7.01}
{"molecule": "CC(=O)Nc1ccc(NC(=O)Cn2cc3c(n2)CCC(C)C3)cc1 (stereo unspecified)", "inhibition [%]": 16.6}
{"molecule": "Cc1ccc(C2C(C(=O)c3sc(C)nc3C)=C(O)C(=O)N2CCN(C)C)o1 (stereo unspecified)", "inhibition [%]": 7.21}

Kindly note the recorded inhibition for "O=C(NCC12CC3CC(C1)CC(CNC(=O)N1CCCC1)(C3)C2)N1CCCC1" , which is 19.1

Kindly note the recorded inhibition for Cc1noc(/C=C/N(C)C)c1S(=O)(=O)N1CCCC(C(=O)N2CCc3ccccc32)C1 (stereo unspecified) , which is 11.8

Kindly note the recorded inhibition for "O=C(Cn1ccc2ccccc2c1=O)Nc1ccc2c(c1)OCO2" , which is 0.207

Kindly note the recorded inhibition for O=C(NCc1ccco1)c1ccc2c(=O)n(CC3CCCO3)c(=S)[nH]c2c1 (stereo unspecified) , which is 9.53

Kindly note the recorded inhibition for "O=C(c1ncn[nH]1)N1CCN(c2nc(-c3ccccc3)cs2)CC1" , which is -1.81

Kindly note the recorded inhibition for "Cc1cccc2sc(NC(=O)Cn3cccc3)nc12" , which is -3.68
